target: L-lactate dehydrogenase (Plasmodium falciparum (isolate CDC / Honduras)); assay: PfLDH activity inhibition – cell lysate, 3D7 strain, counter-screen for P. falciparum growth inhibition project (AID 2304);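 further: 0% = vehicle and 100% = reference inhibitor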; conditions: P. falciparum 3D7 crude extract, LDH APAD/NBT absorbance; at 2 µM; active compounds read high
Provide the reported inhibition of each item.
Answers are plain numbers, in %.

Q: Please give measured inhibition of the following entry: O=C(CN1C(=O)CC1S(=O)(=O)Cc1ccco1)NCCCCCCc1ccc(F)cc1 (stereo not drawn)
Result: -4

Answer for every listed entry: what is its inhibition? The entries follow.
1. CCC[C@@H]([C@@H](CC1CCCCC1)C(=O)N[C@H](C(=O)Nc1nccs1)C(C)(C)SCCOCCOCC)N(O)C=O
2. COc1cc2nc(N3CCC(CNC(=O)c4ccc(-c5ccc(-c6noc(C)n6)cc5)cc4)CC3)nc(N)c2cc1OC
3. COc1cccc(-n2ncc3c(N/N=C/c4ccc(CN(C)CCN(C)C)cc4)ncnc32)c1
4. NCc1ccc(Nc2nccc(Nc3ccc(-c4ccccc4)cc3)n2)cc1
5. Cc1ccc(-c2cc(C(=O)Nc3ccc(S(=O)(=O)N4CCOCC4)cc3)[nH]n2)c(O)c1C
6. CC(C)(C)c1ccc(-c2nc3c(ccc4nc(N)nc(N)c43)[nH]2)cc1
7. O=C(/C=C/c1ccc(Cl)c(Cl)c1)NC1CCC(CN2CCC(Cc3c[nH]c4ccccc34)CC2)CC1 (stereo not drawn)
8. C=CC[C@H](C[C@H](O)[C@H](Cc1ccccc1)NC(=O)c1nn(-c2ccccc2)nc1C)C(=O)NC1CCCCC1

Result:
-5
1
-2
-1
-5
1
-7
5

* * *

assay: ovarian cancer cell viability with rucaparib, profiling panel, oncology-focused library, rucaparib conditional (AID 1508598); conditions: patient-derived ovarian cancer cells, CellTiter-Glo viability, 144 h; at 5 µM; OCI-C5x cells; with rucaparib 10 µM; 100% = cells with rucaparib alone
Active and inactive are the calls of the source.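 How the source made its calls: active means normalized viability below 100% at a tested concentration; inactive means the rest.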
Answer with one of the outcomes active, inactive

Q: Could you check what this test reported for N#Cc1c(O)c2c(-c3ccc(-c4ccccc4O)cc3)csc2[nH]c1=O ?
Result: inactive

Q: Could you check what this test reported for O=c1[nH]c(-c2ccc(C(F)(F)F)cc2)nc2c1CSCC2 ?
Result: inactive

Q: Could you check what this test reported for O=C(O)Cc1cccc(OCCCN(Cc2cccc(C(F)(F)F)c2Cl)CC(c2ccccc2)c2ccccc2)c1 ?
Result: active

Q: Could you check what this test reported for CN(C)CCCn1cc(C2=C(c3c[nH]c4ccccc34)C(=O)NC2=O)c2ccccc21 ?
Result: inactive

Q: Could you check what this test reported for O=C(c1ccc(OCCN2CCCCC2)cc1)c1c(-c2ccc(O)cc2)sc2cc(O)ccc12 ?
Result: inactive

Could you now consider this next compound?
Q: Could you check what this test reported for Nc1nc(F)nc2c1ncn2[C@@H]1O[C@H](COP(=O)(O)O)[C@@H](O)[C@@H]1O ?
Result: active

* * *

Provide the reported log fold change Tl+ flux of each item.
target: Calcium-activated potassium channel subunit alpha-1 (Homo sapiens) + Leucine-rich repeat-containing protein 26 (Homo sapiens) (UniProt Q12791+Q2I0M4); assay: modulators of BK channel variants, profiling panel, selectivity assay, cell-based, U2OS BacMam, thallium flux, beta subunits (AID 1259406); conditions: F380Y/Slo1WT/gamma1, at 30 µM;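 further: initial slope of Thallos dye fluorescence rise after thallium is added; log ratio against the mean of 0.3% DMSO vehicle wells on the same plate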
Sequence (Q2I0M4 whole entry, looked up, one chain of several): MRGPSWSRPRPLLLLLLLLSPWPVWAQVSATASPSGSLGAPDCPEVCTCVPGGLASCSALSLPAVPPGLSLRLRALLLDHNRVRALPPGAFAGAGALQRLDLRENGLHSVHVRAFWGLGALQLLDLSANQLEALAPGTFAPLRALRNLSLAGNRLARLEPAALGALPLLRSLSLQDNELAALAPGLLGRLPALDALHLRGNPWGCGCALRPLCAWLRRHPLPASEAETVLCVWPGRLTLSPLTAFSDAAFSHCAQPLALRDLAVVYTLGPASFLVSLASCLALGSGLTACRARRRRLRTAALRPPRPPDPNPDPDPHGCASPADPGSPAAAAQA
One number for each entry.

Q: Please give measured log fold change Tl+ flux of the following entry: CCOC(=O)CN(C=NC#N)c1ccc(OC)cc1
Result: 0.0663

Q: Please give measured log fold change Tl+ flux of the following entry: CCC1=C[C@H]2CN(C1)Cc1c([nH]c3ccccc13)[C@@](C(=O)OC)(c1cc3c(cc1OC)N(C)[C@H]1[C@@](O)(C(=O)OC)[C@H](OC(C)=O)[C@]4(CC)C=CCN5CC[C@]31[C@@H]54)C2
Result: -0.0112

Answer for every listed entry: what is its log fold change Tl+ flux? The entries follow.
1. NS(=O)(=O)c1cccc(NC(=O)c2cccnc2Oc2ccccc2)c1
2. O=c1[nH]cnc2scc(-c3cccs3)c12
3. CCOC(=O)c1ccc(OC(=O)CCCCCN=C(N)N)cc1
4. COc1ccccc1NC(=S)NNC(=O)CSc1ccccc1[N+](=O)[O-]
5. CC1CC2C3CCC4=CC(=O)C=CC4(C)[C@@]3(Cl)C(O)CC2(C)C1(O)C(=O)CO (some centres undefined)
6. Cc1ccc(-c2nc(N=CNOC(=O)c3ccc([N+](=O)[O-])cc3)sc2C)cc1Cl

Result:
-0.0607
-0.0657
0.00659
0.0332
0.0373
0.102

Q: Please give measured log fold change Tl+ flux of the following entry: O=S(=O)(CCN1CCN(Cc2ccccc2)CC1)c1ccc(F)cc1
Result: 0.000113

* * *

Provide the reported inhibition of each item.
assay: HepG2 cytotoxicity, primary screen, cytotoxicity control for P. falciparum antimalarial project, cell-based, ATP luminescence (AID 2303); details: HepG2 viability, 24-48 h, at 10 µM, active compounds read high;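 further: 0% = DMSO wells and 100% = digitonin-killed cells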
Answers are plain numbers, in %.

Q: Please give measured inhibition of the following entry: Cc1cc(N2CCCC2)nc(Nc2ccc(NC(=O)C3CCCC3)cc2)n1
Result: 27

Answer for every listed entry: what is its inhibition? The entries follow.
1. N=C(N)CCN(Cc1ccc(Cl)cc1)c1ccc(Cl)cc1
2. Cc1c2ccncc2c(C)c2c1[nH]c1cc(Cc3ccccc3)c(O)cc12
3. Cn1c(Nc2nnc(C3CC3)s2)nc2cc(Nc3ccnc(Nc4cccc(CS(C)(=O)=O)c4)n3)ccc21
4. CCOc1ccccc1C(=O)Nc1cccc(-c2nc3ncccn3c2C)c1

Result:
[22, 99, -6, 0]

Answer for every listed entry: what is its inhibition? The entries follow.
1. CCC[C@@H]([C@@H](CC1CCCCC1)C(=O)N[C@H](C(=O)Nc1nccs1)C(C)(C)SCCOCCOCC)N(O)C=O
2. Nc1c(Cl)cc(C(O)CNCCCCCOCCCc2ccc(O)c3ncccc23)cc1Cl (centres undefined)
3. CCOC(=O)c1ccc(NC(=O)N[C@@H](Cc2ccccc2)C(=O)NC2CCN(Cc3ccc(O)cc3)C2)cc1 (some centres undefined)
4. NC(=O)c1ccccc1Nc1nc(Nc2cccc(N3CCN(CCO)CC3)c2)ncc1Cl
5. CCn1c(-c2nonc2N)nc2c(-c3cccc(NC(=O)Nc4ccccc4Cl)c3)ncc(OCCCN)c21
6. Cc1cccc(-c2cccc(CNc3nc(NCCc4ccc(O)cc4)nc(N4CCNCC4)n3)c2)c1
7. CC(C)(C)c1ccc(CN2CCCCC(NC(=O)c3cc(-c4cccc(F)c4)cs3)C2)cc1 (centres undefined)

Result:
[40, 65, 7, 93, 2, 50, 8]

Answer for every listed entry: what is its inhibition? The entries follow.
1. N#Cc1cc(N(CCCOc2cccc(OC(F)(F)F)c2)Cc2ccccc2C(F)(F)F)ccc1C(F)(F)F
2. Cc1ccnc(NC(c2ccc(Cl)c([N+](=O)[O-])c2)c2ccc3cccnc3c2O)c1 (centres undefined)
3. N#Cc1ccc2c(c1)CCN(CCC1CCC(NC(=O)c3ccc(-c4ccccn4)s3)CC1)CC2 (centres undefined)
4. COCCN1CCN(Cc2ccc(-c3cccc(-c4nc5ccccc5[nH]4)c3)cc2)CC1
5. Cc1ccc(C(CC(=O)Nc2nccs2)c2ccc(OC(C)C)cc2)cc1 (centres undefined)

Result:
[2, 47, 16, 32, 5]

Answer for every listed entry: what is its inhibition? The entries follow.
1. CCN(CC)C(=NCCCCCCN=C(/N=C(/N)Nc1ccc(Br)cc1)N(CC)CC)/N=C(/N)Nc1ccc(Br)cc1
2. COc1ccc(-n2cc(C(=O)c3cc(Br)ccc3O)cc(C#N)c2=O)cc1Cl

Result:
1: -7; 2: 29

* * *

test system: F380Y; assay: modulators of BK channel variants, profiling panel, selectivity assay, cell-based, U2OS BacMam, thallium flux, beta subunits (AID 1259406); details: at 30 µM;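 further: initial slope of Thallos dye fluorescence rise after thallium is added; log ratio against the mean of 0.3% DMSO vehicle wells on the same plate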
The source made the active and inactive calls.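 The calls were made as follows: active = thallium flux through the channel raised or lowered by more than 3 SD from vehicle-only wells, actives on both sides; inactive = the rest.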
Answer with one of the outcomes t = active, f = inactive

Q: Could you check what this test reported for CCCCc1nc(Cl)c(CO)n1Cc1ccc(-c2ccccc2-c2nnn[nH]2)cc1 ?
Result: f

Further cases:
Q: Could you check what this test reported for O=C1CSCC(=O)N1c1csc(C(F)(F)F)c1-c1ccccc1 ?
Result: f

Q: Could you check what this test reported for COc1ccc(CNCc2cc(OC)c(OC)c(OC)c2)cc1 ?
Result: f

Q: Could you check what this test reported for Cc1cc(S(=O)(=O)c2ccc(Cl)cc2)sc1C(=O)NCC(O)c1ccccc1 (centres undefined) ?
Result: f

Q: Could you check what this test reported for COc1ccc(C(C)=NO)cc1CN1CCCC1 ?
Result: f

Q: Could you check what this test reported for Cc1oc(S(=O)(=O)N2CCOCC2)cc1C(=O)Nc1ccc(F)cc1 ?
Result: t

Q: Could you check what this test reported for NS(=O)(=O)c1cccc(NC(=O)c2cccnc2Oc2ccccc2)c1 ?
Result: f

Q: Could you check what this test reported for CC(=O)N(C(C)=O)c1ccc2c3c(cccc13)CC2 ?
Result: f

Q: Could you check what this test reported for O=S(=O)(Cc1nc(-c2ccc3c(c2)OCCO3)cs1)c1ccccn1 ?
Result: f

Data provenance: PubChem BioAssay
